Reference source: patent EP1462117A1

- measurement-protocol: Plasma concentrations in monkeys (radioreceptor assay)
- Assay type: in vivo
- details: monkey, plasma
Exercise: state measured half-life for each of the compounds provided.

{"columns": ["compound", "half-life"],
 "data": [
  ["COc1ccccc1N1CCN(CCCCNC(=O)c2ccc3ccccc3c2)CC1 [BP 897]", "~60 min"],
  ["O=C(/C=C/c1ccccc1)NCCCCN1CCc2ccccc2C1 [ST 198]", "~30 min"]
]}

Continue with the compound presented below.
Recorded half-life for CCCCN1CCCC1CNC(=O)c1cc(C#N)c2ccccc2c1OC (stereo not drawn) [nafadotride] , please?
~50 min
